Please go through the items and note down their cytotoxicity at 10 µM.
assayProcedure: Toxicity liver stage against HepG2, at 10uM
Type: cell-based
Design: test concentration 10 uM, cell line HepG2-A16-CD81EGFP
conditionSet: human, HepG2-A16-CD81EGFP cells; read-out: INHIBITION
// return numeric value only (unit: %, not printed)

[ask] Tell me its cytotoxicity at 10 µM given Cc1cc(C(F)(F)F)nn1C(C)C(=O)Nc1ccc(Cl)cn1 (stereo not drawn) as the entry.
[reply] 11.6

[ask] Tell me its cytotoxicity at 10 µM given COCC1CN(Cc2ccc(OC)cc2)Cc2nnn(CC3CC3)c21 (stereo not drawn) as the entry.
[reply] -2.47

[ask] Tell me its cytotoxicity at 10 µM given CC(C(=O)NCc1ccc(N2CCNC(=O)C2)cc1)n1cncn1 (stereo not drawn) as the entry.
[reply] -9.21

[ask] Tell me its cytotoxicity at 10 µM given Cc1ncc2c(n1)CN(CC1CCCCO1)CC2 (stereo not drawn) as the entry.
[reply] -2.3

[ask] Tell me its cytotoxicity at 10 µM given CCN(CC)C(=O)C1CCC2(CCNCC2)CO1 (stereo not drawn) as the entry.
[reply] -146

[ask] Tell me its cytotoxicity at 10 µM given CC(=O)Nc1nc(C(=O)N2CCCC(n3ccnc3C)C2)cs1 (stereo not drawn) as the entry.
[reply] -9.78

[ask] Tell me its cytotoxicity at 10 µM given "c1cnc(N2CCC(c3cc4cccnc4[nH]3)CC2)nc1" as the entry.
[reply] -7.28

[ask] Tell me its cytotoxicity at 10 µM given O=C(NC1CC1)N1CCOC2(CCCN(c3cccc(F)c3)C2)C1 (stereo not drawn) as the entry.
[reply] 4.23

Entry source: ChEMBL document CHEMBL4513216
